Values compiled from paper PMC5421785.

molecular target: HLA-DRB1*01:01 (Homo sapiens, UniProt P01903+P01911, A100R/D57E/F55L/F60I/F76Y/I96L/L162R/M171V/P40L/Q125E/R42F/V115G/Y59C); construct: EBV transformed homozygous cell lines were used as sources of MHC molecules; endogenous in cells; host or cells: EBV transformed homozygous cell lines; experiment: HLA class II peptide binding, inhibition of radiolabeled peptide binding to purified MHC; details: citrullinated peptide as listed (X at Cit position); read-out: DRB1*01:01 binding capacity Cit peptide (IC50 nM)
Square brackets hold non-standard residues; d marks the D form. Peptide text beside a SMILES is read from it. Cit = NC(=O)NCCC[C@H](N)C(=O)O
measured_property: IC50 (nM)
# output: bare number, implied unit nM

Problem: Field request: IC50 | item: CC[C@H](C)[C@H](NC(=O)[C@H](CC(=O)O)NC(=O)[C@@H](NC(=O)[C@@H](NC(=O)[C@@H]1CCCN1C(=O)[C@H](CC(C)C)NC(=O)[C@H](CCCNC(N)=O)NC(=O)[C@H](CO)NC(=O)[C@@H](NC(=O)[C@H](CCCCN)NC(=O)[C@H](CCC(N)=O)NC(=O)[C@H](CO)NC(=O)[C@H](CCCNC(=N)N)NC(=O)[C@H](Cc1ccc(O)cc1)NC(=O)[C@@H](N)CCC(=O)O)[C@@H](C)O)[C@@H](C)CC)[C@@H](C)CC)C(=O)O [EYRSQKTSXLPIIDI] (H-EYRSQKTS[Cit]LPIIDI-OH)
Result: 6.9
